test system: Salmonella typhimurium; assay: Mutagenic activity in Salmonella Typhimurium TA100 assessed as number of revertants after 44 hrs by Ames test in presence of rat liver S9 fraction; type: toxicity, organism-based; settings: salmonella enterica subsp. enterica serovar typhimurium, s9, 44 h
quantity.name: Activity

Previously resolved entries follow.
[Q] Specify Activity for COC(=O)C1CC2c3ccccc3C1N2N=O (stereo not drawn) and stop.
[A] Non-toxic

[Q] Specify Activity for O=NN1C2C=CC1c1cc([N+](=O)[O-])ccc12 (stereo not drawn) and stop.
[A] Toxic

[Q] Specify Activity for "COc1cc2c(cc1OC)C1CCC2N1N=O" and stop.
[A] Toxic

[Q] Specify Activity for COCC12CCC(C(C(=O)OC)C1)N2N=O (stereo not drawn) and stop.
[A] Non-toxic

[Q] Specify Activity for COC(=O)C1CC2(COCc3ccccc3)CCC1N2N=O (stereo not drawn) and stop.
[A] Non-toxic

New cases:
[Q] Specify Activity for "O=NN1CCCC1" and stop.
[A] Toxic

[Q] Specify Activity for O=NN1C2c3ccccc3C1C1C(=O)N(c3ccccc3)C(=O)C12 (stereo not drawn) and stop.
[A] Non-toxic

[Q] Specify Activity for "O=NN1Cc2ccccc2C1" and stop.
[A] Toxic

[Q] Specify Activity for "CN1C(=O)[C@@H]2C3c4ccccc4C([C@@H]2C1=O)N3N=O" and stop.
[A] Non-toxic

[Q] Specify Activity for O=NN1C2CCC1c1cc([N+](=O)[O-])ccc12 (stereo not drawn) and stop.
[A] Non-toxic

###

tested on: Salmonella typhimurium; test: Mutagenic activity in Salmonella Typhimurium TA98 assessed as number of revertants after 44 hrs by Ames test; type: toxicity, organism-based; conditions: salmonella enterica subsp. enterica serovar typhimurium
quantity.name: Activity

Previously resolved entries follow.
[Q] Specify Activity for O=NN1C2CC(O)C1c1ccccc12 (stereo not given) and stop.
[A] Non-toxic

[Q] Specify Activity for O=NN1C2c3ccccc3C1C(C(F)(F)F)C2C(F)(F)F (stereo not given) and stop.
[A] Non-toxic

[Q] Specify Activity for COCC12CCC(C(C(=O)OC)C1)N2N=O (stereo not given) and stop.
[A] Non-toxic

[Q] Specify Activity for O=NN1C2CC(O)C1c1ccc([N+](=O)[O-])cc12 (stereo not given) and stop.
[A] Toxic

Now consider the entry below.
[Q] Specify Activity for COC(=O)C1C(C(=O)OC)C2CCC1N2N=O (stereo not given) and stop.
[A] Non-toxic

###

test system: Salmonella typhimurium; experiment: Mutagenic activity in Salmonella Typhimurium TA98 assessed as number of revertants after 44 hrs by Ames test; assay type: toxicity, organism-based; settings: salmonella enterica subsp. enterica serovar typhimurium
quantity.name: Activity

Previously resolved entries follow.
[Q] Specify Activity for "O=NN1C2CCC1c1ccccc12" and stop.
[A] Non-toxic

[Q] Specify Activity for "O=NN1C2CCC1CC2" and stop.
[A] Non-toxic

[Q] Specify Activity for "COc1cc2c(cc1OC)C1CCC2N1N=O" and stop.
[A] Toxic

[Q] Specify Activity for "O=NN1CCCC1" and stop.
[A] Non-toxic

[Q] Specify Activity for O=NN1C2CCC1c1cc([N+](=O)[O-])ccc12 (stereo not drawn) and stop.
[A] Non-toxic

New cases:
[Q] Specify Activity for COC(=O)C1CC2(COCc3ccccc3)CCC1N2N=O (stereo not drawn) and stop.
[A] Non-toxic

[Q] Specify Activity for CCOC(=O)CCN1C(=O)C2C(C1=O)C1c3ccccc3C2N1N=O (stereo not drawn) and stop.
[A] Non-toxic

[Q] Specify Activity for "CN1C(=O)[C@@H]2C3c4ccccc4C([C@@H]2C1=O)N3N=O" and stop.
[A] Non-toxic

[Q] Specify Activity for O=NN1C2c3ccccc3C1C1C(=O)N(c3ccccc3)C(=O)C12 (stereo not drawn) and stop.
[A] Non-toxic

[Q] Specify Activity for O=NN1C2C=CC1c1cc([N+](=O)[O-])ccc12 (stereo not drawn) and stop.
[A] Toxic

[Q] Specify Activity for "O=NN1Cc2ccccc2C1" and stop.
[A] Non-toxic

[Q] Specify Activity for COC(=O)C1C(C(=O)OC)C2c3ccccc3C1N2N=O (stereo not drawn) and stop.
[A] Non-toxic

[Q] Specify Activity for COC(=O)C1CC2c3ccccc3C1N2N=O (stereo not drawn) and stop.
[A] Non-toxic

###

system: Salmonella typhimurium; assay: Mutagenic activity in Salmonella Typhimurium TA98 assessed as number of revertants after 44 hrs by Ames test in presence of rat liver S9 fraction; format: toxicity, organism-based; details: salmonella enterica subsp. enterica serovar typhimurium, s9, 44 h
quantity.name: Activity

Previously resolved entries follow.
[Q] Specify Activity for O=NN1C2CC(O)C1c1ccccc12 (stereo not drawn) and stop.
[A] Non-toxic

[Q] Specify Activity for O=NN1C2CCC1c1cc([N+](=O)[O-])ccc12 (stereo not drawn) and stop.
[A] Non-toxic

[Q] Specify Activity for "CN1C(=O)[C@@H]2C3c4ccccc4C([C@@H]2C1=O)N3N=O" and stop.
[A] Non-toxic

[Q] Specify Activity for O=NN1C2CC(O)C1c1ccc([N+](=O)[O-])cc12 (stereo not drawn) and stop.
[A] Toxic

[Q] Specify Activity for CCOC(=O)CCN1C(=O)C2C(C1=O)C1c3ccccc3C2N1N=O (stereo not drawn) and stop.
[A] Non-toxic

New cases:
[Q] Specify Activity for COC(=O)C1C(C(=O)OC)C2CCC1N2N=O (stereo not drawn) and stop.
[A] Non-toxic

[Q] Specify Activity for COC(=O)C1CC2(COCc3ccccc3)CCC1N2N=O (stereo not drawn) and stop.
[A] Non-toxic

[Q] Specify Activity for O=NN1C2c3ccccc3C1C1C(=O)N(c3ccccc3)C(=O)C12 (stereo not drawn) and stop.
[A] Non-toxic

[Q] Specify Activity for "O=NN1C2CCC1c1ccccc12" and stop.
[A] Non-toxic

[Q] Specify Activity for "COc1cc2c(cc1OC)C1CCC2N1N=O" and stop.
[A] Toxic

[Q] Specify Activity for COC(=O)C1C(C(=O)OC)C2c3ccccc3C1N2N=O (stereo not drawn) and stop.
[A] Non-toxic

[Q] Specify Activity for COCC12CCC(C(C(=O)OC)C1)N2N=O (stereo not drawn) and stop.
[A] Non-toxic

[Q] Specify Activity for O=NN1C2c3ccccc3C1C(C(F)(F)F)C2C(F)(F)F (stereo not drawn) and stop.
[A] Non-toxic

[Q] Specify Activity for COC(=O)C1CC2c3ccccc3C1N2N=O (stereo not drawn) and stop.
[A] Non-toxic

[Q] Specify Activity for "O=NN1C2CCC1CC2" and stop.
[A] Non-toxic

###

tested on: Salmonella typhimurium; assay: Mutagenic activity in Salmonella Typhimurium TA100 assessed as number of revertants after 44 hrs by Ames test in presence of rat liver S9 fraction; type: toxicity, organism-based; conditions: salmonella enterica subsp. enterica serovar typhimurium, s9, 44 h
quantity.name: Activity

[Q] Quote Salmonella typhimurium Activity for entry COC(=O)C1C(C(=O)OC)C2CCC1N2N=O (stereo not drawn) .
[A] Non-toxic

[Q] Quote Salmonella typhimurium Activity for entry COC(=O)C1C(C(=O)OC)C2c3ccccc3C1N2N=O (stereo not drawn) .
[A] Non-toxic

[Q] Quote Salmonella typhimurium Activity for entry O=NN1C2c3ccccc3C1C(C(F)(F)F)C2C(F)(F)F (stereo not drawn) .
[A] Non-toxic

[Q] Quote Salmonella typhimurium Activity for entry O=NN1C2CC(O)C1c1ccc([N+](=O)[O-])cc12 (stereo not drawn) .
[A] Toxic

[Q] Quote Salmonella typhimurium Activity for entry "O=NN1C2CCC1CC2" .
[A] Non-toxic

New cases:
[Q] Quote Salmonella typhimurium Activity for entry CCOC(=O)CCN1C(=O)C2C(C1=O)C1c3ccccc3C2N1N=O (stereo not drawn) .
[A] Non-toxic

[Q] Quote Salmonella typhimurium Activity for entry O=NN1C2CC(O)C1c1ccccc12 (stereo not drawn) .
[A] Non-toxic

[Q] Quote Salmonella typhimurium Activity for entry "O=NN1C2CCC1c1ccccc12" .
[A] Non-toxic

###

tested on: Salmonella typhimurium; assay: Mutagenic activity in Salmonella Typhimurium TA98 assessed as number of revertants after 44 hrs by Ames test in presence of rat liver S9 fraction; type: toxicity, organism-based; settings: salmonella enterica subsp. enterica serovar typhimurium, s9, 44 h
quantity.name: Activity

[Q] Quote Salmonella typhimurium Activity for entry "O=NN1Cc2ccccc2C1" .
[A] Toxic

[Q] Quote Salmonella typhimurium Activity for entry O=NN1C2C=CC1c1cc([N+](=O)[O-])ccc12 (stereo not drawn) .
[A] Toxic

[Q] Quote Salmonella typhimurium Activity for entry "O=NN1CCCC1" .
[A] Toxic

All values here come from ChEMBL document CHEMBL1764971.
